Values compiled from patent US20060276464A1.

- tested.system: SFRP-1 (Homo sapiens)
- Sequence (Q8N474 32-314): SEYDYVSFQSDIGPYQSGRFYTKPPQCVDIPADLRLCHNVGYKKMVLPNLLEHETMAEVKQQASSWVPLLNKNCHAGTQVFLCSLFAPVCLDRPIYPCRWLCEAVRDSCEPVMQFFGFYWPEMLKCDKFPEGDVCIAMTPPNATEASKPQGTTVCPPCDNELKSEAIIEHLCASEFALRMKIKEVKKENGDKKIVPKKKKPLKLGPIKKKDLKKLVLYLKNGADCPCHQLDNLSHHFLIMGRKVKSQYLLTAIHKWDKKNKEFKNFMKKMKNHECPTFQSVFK
- method.description: Cell-based assay for in vitro measurement of SFRP-1/SARP2 antagonist activity (U2OS cells co-transfected with 16x TCF-tk-Luciferase reporter, Wnt and hSFRP-1)
- condition.context: U2OS, read-out: Fold Induction without SFRP-1, Conc 15 μM; without SFRP-1, single dose
assay.metric: fold induction at 15 µM

INSERT INTO results (compound, value_measured) VALUES
  ('Cc1ccc(S(=O)(=O)c2ccccc2)cc1S(=O)(=O)NC1CCN(C(=O)c2ccc(Cl)cc2)CC1', 1.1),
  ('COc1ccc(S(=O)(=O)c2ccccc2)cc1S(=O)(=O)NCCc1ccccn1', 1),
  ('CCc1ccc(S(=O)(=O)c2ccccc2)cc1S(=O)(=O)NC1CCOCC1', 1.2),
  ('CC(C)c1ccc(S(=O)(=O)c2ccccc2)cc1S(=O)(=O)NCCCn1ccnc1', 1.4),
  ('Cc1ccc(S(=O)(=O)c2ccccc2)cc1S(=O)(=O)NC1CCC1', 1.2),
  ('Cc1ccc(S(=O)(=O)c2ccc(C(C)(C)C)cc2)cc1S(=O)(=O)NCCCn1ccnc1', 0.9),
  ('COc1ccccc1CCNS(=O)(=O)c1cc(S(=O)(=O)c2ccccc2)ccc1OC', 1.1),
  ('Cc1ccc(S(=O)(=O)c2ccccc2)cc1S(=O)(=O)NC(=O)[C@@H](N)Cc1ccccc1', 1),
  ('Cc1ccc(S(=O)(=O)c2ccccc2)cc1S(=O)(=O)NC1CCN(C(=O)c2ccc(C#N)cc2)CC1', 1),
  ('CCN(CC)CCCNS(=O)(=O)c1cc(S(=O)(=O)c2ccccc2)ccc1OC', 1.1),
  ('Cc1ccc(S(=O)(=O)c2ccccc2)cc1S(=O)(=O)NC1CCN(C(=O)Cc2ccccc2)CC1', 1.1),
  ('Cc1ccc(S(=O)(=O)c2ccccc2)cc1S(=O)(=O)NC(C)(C)C', 1),
  ('CCC(O)CNc1ccc(S(=O)(=O)c2ccc(C)c(S(=O)(=O)NCCCn3ccnc3)c2)cc1 (stereo not shown)', 1),
  ('Cc1cc(S(=O)(=O)c2ccccc2)cc(S(=O)(=O)NCCc2ccccn2)c1C', 1.2),
  ('Cc1ccc(S(=O)(=O)c2ccccc2)cc1S(=O)(=O)NCCc1c[nH]cn1', 1),
  ('CCOc1ccc(CCNS(=O)(=O)c2cc(S(=O)(=O)c3ccccc3)ccc2CC)cc1OC', 1.1),
  ('Cc1ccc(S(=O)(=O)c2ccc(N3CCCC3)cc2)cc1S(=O)(=O)NCCCn1ccnc1', 1),
  ('COC(=O)CCNS(=O)(=O)c1cc(S(=O)(=O)c2ccccc2)ccc1C', 1.1),
  ('Cc1ccc(S(=O)(=O)c2ccccc2)cc1S(=O)(=O)NC1CCN(C(=O)c2ccco2)CC1', 1.1),
  ('COC(=O)CCNS(=O)(=O)c1cc(S(=O)(=O)c2ccccc2)ccc1OC', 1),
  ('Cc1ccc(S(=O)(=O)c2ccc(C(C)(C)O)cc2)cc1S(=O)(=O)NCCc1ccccn1', 1.1),
  ('CCOc1cc(CCNS(=O)(=O)c2cc(S(=O)(=O)c3ccccc3)ccc2OC)ccc1OC', 1.2);

---

- tested.system: UniProt:Q8N474
- Sequence (Q8N474 32-314): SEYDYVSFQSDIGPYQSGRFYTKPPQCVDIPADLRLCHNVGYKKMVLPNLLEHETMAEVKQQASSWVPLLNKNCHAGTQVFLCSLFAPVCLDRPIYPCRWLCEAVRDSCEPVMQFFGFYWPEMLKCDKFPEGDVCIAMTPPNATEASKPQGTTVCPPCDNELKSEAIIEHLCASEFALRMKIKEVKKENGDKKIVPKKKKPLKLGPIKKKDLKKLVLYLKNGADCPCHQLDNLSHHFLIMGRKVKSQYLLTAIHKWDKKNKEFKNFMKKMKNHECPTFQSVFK
- method.description: Cell-based assay for in vitro measurement of SFRP-1/SARP2 antagonist activity (U2OS cells co-transfected with 16x TCF-tk-Luciferase reporter, Wnt and hSFRP-1)
- condition.context: U2OS, read-out: Fold Induction with SFRP-1, Conc 15 μM; with SFRP-1; fold induction over SFRP-1 control, single dose
assay.metric: fold induction at 15 µM

# annotated cases, reported fold induction at 15 µM shown
INSERT INTO assay_data (query_smiles, tested_system, value_measured) VALUES
  ('Cc1ccc(S(=O)(=O)c2ccccc2)cc1S(=O)(=O)NC1CCOCC1', 'UniProt:Q8N474', 3.2),
  ('O=S(=O)(NCCN1CCOCC1)c1cc(S(=O)(=O)c2ccccc2)ccc1Cl', 'UniProt:Q8N474', 2.2);

[1] Cc1ccc(S(=O)(=O)c2ccc(N=[N+]=[N-])cc2)cc1S(=O)(=O)NCCCn1ccnc1
[2] Cc1cc(C)cc(S(=O)(=O)c2ccc(C(C)C)c(S(=O)(=O)NCCc3ccccn3)c2)c1
Response body: label of entry with the larger fold induction at 15 µM; valid values 1 , 2 . Bench note: the answer is the label of the chosen record.
1

---

- tested.system: SFRP-1 (Homo sapiens)
- method.description: Cell-based assay for in vitro measurement of SFRP-1/SARP2 antagonist activity (U2OS cells co-transfected with 16x TCF-tk-Luciferase reporter, Wnt and hSFRP-1)
- condition.context: U2OS, read-out: Fold Induction with SFRP-1, Conc 15 μM; with SFRP-1; fold induction over SFRP-1 control, single dose
assay.metric: fold induction at 15 µM

INSERT INTO assay_data (molecule, tested_system, assay_metric, value_measured) VALUES
  ('CCOc1ccccc1S(=O)(=O)c1ccc(C)c(S(=O)(=O)NCCc2ccccn2)c1', 'SFRP-1 (Homo sapiens)', 'fold induction at 15 µM', 2.4),
  ('Cc1ccc(S(=O)(=O)c2ccccc2)cc1S(=O)(=O)N[C@H]1CCCC[C@@H]1O (relative stereo)', 'SFRP-1 (Homo sapiens)', 'fold induction at 15 µM', 1.9),
  ('CC(C)c1ccc(S(=O)(=O)c2ccc(F)cc2)cc1S(=O)(=O)NCCC1CCOCC1', 'SFRP-1 (Homo sapiens)', 'fold induction at 15 µM', 2.5),
  ('Cc1ccc(S(=O)(=O)c2ccc(F)cc2)cc1S(=O)(=O)NCCCN1CCCC1=O', 'SFRP-1 (Homo sapiens)', 'fold induction at 15 µM', 2.3),
  ('CC(=O)c1ccc(S(=O)(=O)c2ccc(C)c(S(=O)(=O)NCCc3ccccn3)c2)cc1', 'SFRP-1 (Homo sapiens)', 'fold induction at 15 µM', 2.5),
  ('Cc1cc(C)c(S(=O)(=O)c2ccccc2)cc1S(=O)(=O)NCCc1ccccn1', 'SFRP-1 (Homo sapiens)', 'fold induction at 15 µM', 2.4);

---

- tested.system: SFRP-1 (Homo sapiens, UniProt Q8N474)
- method.description: Cell-based assay for in vitro measurement of SFRP-1/SARP2 antagonist activity (U2OS cells co-transfected with 16x TCF-tk-Luciferase reporter, Wnt and hSFRP-1);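 also: U2OS cells co-transfected with a TCF-tk luciferase reporter, a Wnt vector, hSFRP-1 or empty vector and CMV-βgal, luciferase luminescence read in cell lysates alongside βgal activity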
- condition.context: U2OS, read-out: Fold Induction without SFRP-1, Conc 15 μM; without SFRP-1, single dose
assay.metric: fold induction at 15 µM

INSERT INTO measurements (query_smiles, tested_system, assay_metric, value_measured) VALUES
  ('CCc1ccc(S(=O)(=O)c2ccccc2)cc1S(=O)(=O)NCCc1ccc(OC)c(OC)c1', 'SFRP-1 (Homo sapiens, UniProt Q8N474)', 'fold induction at 15 µM', 1.1),
  ('O=S(=O)(NCCN1CCOCC1)c1cc(S(=O)(=O)c2ccccc2)ccc1Cl', 'SFRP-1 (Homo sapiens, UniProt Q8N474)', 'fold induction at 15 µM', 1),
  ('CC(C)(C)c1ccc(S(=O)(=O)c2ccccc2)cc1S(=O)(=O)NCCc1ccccn1', 'SFRP-1 (Homo sapiens, UniProt Q8N474)', 'fold induction at 15 µM', 1),
  ('CCc1ccc(S(=O)(=O)c2ccccc2)cc1S(=O)(=O)NCCCN(C)C', 'SFRP-1 (Homo sapiens, UniProt Q8N474)', 'fold induction at 15 µM', 1.2),
  ('Cc1ccc(S(=O)(=O)c2ccc(-c3ccccc3)cc2)cc1S(=O)(=O)NCCc1ccccn1', 'SFRP-1 (Homo sapiens, UniProt Q8N474)', 'fold induction at 15 µM', 1.1),
  ('CCNc1ccc(S(=O)(=O)c2ccc(C)c(S(=O)(=O)NCCCn3ccnc3)c2)cc1', 'SFRP-1 (Homo sapiens, UniProt Q8N474)', 'fold induction at 15 µM', 1),
  ('CCc1ccc(S(=O)(=O)c2ccccc2)cc1S(=O)(=O)NCCOC', 'SFRP-1 (Homo sapiens, UniProt Q8N474)', 'fold induction at 15 µM', 0.8),
  ('Cc1ccc(S(=O)(=O)c2ccc(C#N)cc2)cc1S(=O)(=O)NC1CCOCC1', 'SFRP-1 (Homo sapiens, UniProt Q8N474)', 'fold induction at 15 µM', 1.1);
